# system tested: T1, human NGF-Fc protein (human, UniProt P01138 122-241, limits assumed)
# T1 construct: not shown: human IgG1 Fc or IgG4 Fc
# T1 sequence (P01138 122-241 limits assumed): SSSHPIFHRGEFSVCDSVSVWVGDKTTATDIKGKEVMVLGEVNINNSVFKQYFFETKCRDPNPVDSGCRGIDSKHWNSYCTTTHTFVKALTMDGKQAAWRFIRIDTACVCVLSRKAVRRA
# assay info: BLI (Octet Red), human NGF-Fc captured on anti-human Fc sensors, Fab in solution
measured parameter: kon (M⁻¹ s⁻¹)
The response must be a number in M⁻¹ s⁻¹ with no trailing unit.

Ab44 Fab (Fab, V domains shown) VH: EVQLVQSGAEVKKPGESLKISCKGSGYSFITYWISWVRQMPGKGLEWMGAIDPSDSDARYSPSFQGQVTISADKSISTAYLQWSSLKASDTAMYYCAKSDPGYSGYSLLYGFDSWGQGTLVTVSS VL: DVVMTQSPLSLPVTLGQPASISCRSSQSLVQRNGNTYLSWYQQRPGQSPRLLIYQVSNRYSGVPDRFSGSGSGTDFTLKISRVEAEDVGVYYCGQGAHLPLTFGQGTKVEIK = 83800
Ab61 Fab (Fab, V domains shown) VH: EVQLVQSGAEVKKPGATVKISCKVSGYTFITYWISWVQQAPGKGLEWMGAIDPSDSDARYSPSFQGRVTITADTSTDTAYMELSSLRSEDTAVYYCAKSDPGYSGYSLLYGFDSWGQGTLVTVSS VL: DVVMTQSPLSLPVTLGQPASISCRSSQSLVQRNANTYLSWYQQRPGQSPRLLIYQVSNRYSGVPDRFSGSGSGTDFTLKISRVEAEDVGVYYCGQGAHLPLTFGQGTKVEIK = 370000
Ab47 Fab (Fab, V domains shown) VH: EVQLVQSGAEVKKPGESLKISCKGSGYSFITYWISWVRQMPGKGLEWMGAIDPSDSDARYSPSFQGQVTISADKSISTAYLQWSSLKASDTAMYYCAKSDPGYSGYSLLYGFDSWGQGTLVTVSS VL: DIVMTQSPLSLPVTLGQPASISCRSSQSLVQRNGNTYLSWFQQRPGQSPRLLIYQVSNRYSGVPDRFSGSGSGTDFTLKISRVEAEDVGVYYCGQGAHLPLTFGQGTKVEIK = 40700
Ab36 Fab (Fab, V domains shown) VH: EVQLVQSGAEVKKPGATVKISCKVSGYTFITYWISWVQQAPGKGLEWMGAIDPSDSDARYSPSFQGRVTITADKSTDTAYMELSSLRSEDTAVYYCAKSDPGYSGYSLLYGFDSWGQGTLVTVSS VL: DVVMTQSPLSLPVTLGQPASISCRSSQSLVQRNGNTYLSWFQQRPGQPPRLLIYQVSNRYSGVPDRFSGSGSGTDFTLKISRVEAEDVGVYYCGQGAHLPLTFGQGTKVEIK = 285000

Below: the item to evaluate.
Entry Ab46 Fab (Fab, V domains shown) VH: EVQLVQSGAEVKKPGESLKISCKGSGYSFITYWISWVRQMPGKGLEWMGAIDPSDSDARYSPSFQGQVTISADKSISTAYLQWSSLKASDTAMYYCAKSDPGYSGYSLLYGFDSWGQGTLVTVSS VL: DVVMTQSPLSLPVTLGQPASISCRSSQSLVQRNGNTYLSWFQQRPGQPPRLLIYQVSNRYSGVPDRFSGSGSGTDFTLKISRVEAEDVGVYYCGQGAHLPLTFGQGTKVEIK — recorded kon = 37100
